Target: RARα (Homo sapiens, UniProt P10276)
Sequence (P10276 whole entry, species assumed): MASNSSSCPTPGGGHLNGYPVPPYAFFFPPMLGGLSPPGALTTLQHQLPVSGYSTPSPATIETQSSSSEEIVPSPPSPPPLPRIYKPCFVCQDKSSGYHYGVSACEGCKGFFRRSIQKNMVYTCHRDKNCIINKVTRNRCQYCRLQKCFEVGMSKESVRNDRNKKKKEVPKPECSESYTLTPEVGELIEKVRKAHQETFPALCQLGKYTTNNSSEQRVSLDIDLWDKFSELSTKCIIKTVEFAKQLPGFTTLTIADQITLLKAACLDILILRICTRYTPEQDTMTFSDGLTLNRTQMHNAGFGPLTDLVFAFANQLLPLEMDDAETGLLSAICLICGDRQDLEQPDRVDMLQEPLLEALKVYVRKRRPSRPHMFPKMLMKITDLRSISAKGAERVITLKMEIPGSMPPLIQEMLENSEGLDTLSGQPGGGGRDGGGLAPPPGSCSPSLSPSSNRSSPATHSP
Sequence (P19793 whole entry partner, species assumed): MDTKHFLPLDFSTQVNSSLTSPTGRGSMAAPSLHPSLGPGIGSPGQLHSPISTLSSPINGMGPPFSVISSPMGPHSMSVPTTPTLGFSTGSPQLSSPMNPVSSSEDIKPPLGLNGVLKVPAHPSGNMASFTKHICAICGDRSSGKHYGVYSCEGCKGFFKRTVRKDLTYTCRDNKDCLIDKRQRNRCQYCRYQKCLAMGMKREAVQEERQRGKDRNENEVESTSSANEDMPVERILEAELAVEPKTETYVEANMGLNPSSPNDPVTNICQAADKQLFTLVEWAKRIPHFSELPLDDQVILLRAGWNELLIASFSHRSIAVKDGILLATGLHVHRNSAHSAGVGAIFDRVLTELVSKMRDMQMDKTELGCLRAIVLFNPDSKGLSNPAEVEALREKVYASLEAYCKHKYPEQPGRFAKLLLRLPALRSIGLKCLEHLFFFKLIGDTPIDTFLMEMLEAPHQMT
Experiment: RARα binding assay (SPA, 3H-TTNPB competition)
Settings: RARα/RXRα heterodimer
endpoint: Ki (nM)

INSERT INTO results (compound, endpoint, result_modifier, measured_number) VALUES
  ('CC(C)Sc1cc(-c2cc(-c3ccc(C(=O)O)cc3)nn2-c2ccc(C(=O)N(C)C)cc2)cc(C(C)(C)C)c1 [Example 12]', 'Ki', '=', 386),
  ('CC(C)(C)c1cc(-c2cc(-c3ccc(C(=O)O)cc3)nn2-c2ccc(S(C)(=O)=O)cc2)cc(C(C)(C)C)c1 [Example 19]', 'Ki', '=', 285),
  ('CC(C)(C)c1cc(-c2cc(-c3ccc(C(=O)O)cc3)nn2-c2ccc(C(=O)N3CCOCC3)cc2)cc(C(C)(C)C)n1 [Example 8]', 'Ki', '=', 357),
  ('CN1CCN(C(=O)c2ccc(-n3nc(-c4ccc(C(=O)O)cc4)cc3-c3cc(C(C)(C)C)cc(C(C)(C)C)c3)cc2)CC1 [Example 1]', 'Ki', '>', 970);

---

Biological target: UniProt P10826
Sequence (P10826 whole entry, species assumed): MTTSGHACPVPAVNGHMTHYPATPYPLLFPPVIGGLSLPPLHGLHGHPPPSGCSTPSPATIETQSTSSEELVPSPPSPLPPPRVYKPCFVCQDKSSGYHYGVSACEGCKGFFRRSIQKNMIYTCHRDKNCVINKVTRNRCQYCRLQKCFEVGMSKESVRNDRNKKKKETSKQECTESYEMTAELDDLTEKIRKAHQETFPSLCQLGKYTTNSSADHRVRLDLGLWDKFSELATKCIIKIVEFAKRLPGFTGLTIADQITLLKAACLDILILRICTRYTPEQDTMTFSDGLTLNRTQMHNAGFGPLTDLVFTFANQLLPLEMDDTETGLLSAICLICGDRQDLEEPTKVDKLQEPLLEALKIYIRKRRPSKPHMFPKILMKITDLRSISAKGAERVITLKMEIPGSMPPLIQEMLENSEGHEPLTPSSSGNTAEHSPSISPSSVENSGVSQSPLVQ
Sequence (P19793 whole entry partner, species assumed): as the sequence (P19793 whole entry partner, species assumed) above
Assay: RARβ binding assay (SPA, 3H-TTNPB competition)
Conditions: RARβ/RXRα heterodimer
Procedure: Compounds can be evaluated for binding to RARα, β and γ by measuring their ability to competitively bind to the RAR receptors when dimerized with the binding partner RXRα. […] Non-specific binding may be determined in the presence of 1 μM unlabeled TTNPB. […] Use the Cheng-Prusoff equation to convert IC50 (nM) values for compounds to Ki, and the Kd may be determined by saturation binding.
// reported Ki per item
endpoint: Ki (nM)

INSERT INTO measurements (compound, system_under_test, result_modifier, measured_number) VALUES
  ('CC(C)(C)c1cc(-c2cc(-c3ccc(C(=O)O)cc3)nn2-c2ccc(S(C)(=O)=O)cc2)cc(C(C)(C)C)c1 [Example 19]', 'UniProt P10826', '=', 828),
  ('CN1CCN(C(=O)c2ccc(-n3nc(-c4ccc(C(=O)O)cc4)cc3-c3cc(C(C)(C)C)cc(C(C)(C)C)c3)cc2)CC1 [Example 1]', 'UniProt P10826', '>', 1820),
  ('CC(C)Sc1cc(-c2cc(-c3ccc(C(=O)O)cc3)nn2-c2ccc(C(=O)N(C)C)cc2)cc(C(C)(C)C)c1 [Example 12]', 'UniProt P10826', '=', 609),
  ('CC(C)(C)c1cc(-c2cc(-c3ccc(C(=O)O)cc3)nn2-c2ccc(C(=O)N3CCOCC3)cc2)cc(C(C)(C)C)n1 [Example 8]', 'UniProt P10826', '=', 1400);

---

Biological target: RARγ (Homo sapiens, UniProt P13631)
Sequence (P13631 whole entry): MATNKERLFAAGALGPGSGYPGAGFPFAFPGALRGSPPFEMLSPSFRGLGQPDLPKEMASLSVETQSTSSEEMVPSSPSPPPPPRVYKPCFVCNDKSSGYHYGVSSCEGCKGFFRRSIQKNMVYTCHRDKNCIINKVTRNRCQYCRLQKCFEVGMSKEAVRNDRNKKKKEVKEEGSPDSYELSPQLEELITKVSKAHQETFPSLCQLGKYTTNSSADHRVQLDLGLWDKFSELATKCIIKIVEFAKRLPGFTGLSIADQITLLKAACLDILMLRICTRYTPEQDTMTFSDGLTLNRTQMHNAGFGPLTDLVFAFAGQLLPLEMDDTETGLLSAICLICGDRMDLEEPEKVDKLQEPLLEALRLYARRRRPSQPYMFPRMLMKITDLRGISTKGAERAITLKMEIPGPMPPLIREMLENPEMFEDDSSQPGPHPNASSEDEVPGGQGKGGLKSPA
Sequence (P19793 whole entry partner): as the sequence (P19793 whole entry partner, species assumed) above
Experiment: RARγ binding assay (SPA, 3H-TTNPB competition)
Conditions: RARγ/RXRα heterodimer
endpoint: Ki

INSERT INTO assay_data (mol_smiles, result) VALUES
  ('CC(C)(C)c1cc(-c2cc(-c3ccc(C(=O)O)cc3)nn2-c2ccc(C(=O)N3CCOCC3)cc2)cc(C(C)(C)C)n1', '1.58 nM'),
  ('CC(C)Sc1cc(-c2cc(-c3ccc(C(=O)O)cc3)nn2-c2ccc(C(=O)N(C)C)cc2)cc(C(C)(C)C)c1', '3.06 nM'),
  ('CC(C)(C)c1cc(-c2cc(-c3ccc(C(=O)O)cc3)nn2-c2ccc(S(C)(=O)=O)cc2)cc(C(C)(C)C)c1', '2.76 nM'),
  ('CN1CCN(C(=O)c2ccc(-n3nc(-c4ccc(C(=O)O)cc4)cc3-c3cc(C(C)(C)C)cc(C(C)(C)C)c3)cc2)CC1', '1.69 nM');
